Sourced from PubChem BioAssay AID1963862

Reported viability, T/C values follow for various compounds
System: KRAS patient-derived spheroids with HUVEC/MSC, viability
procedure-text: Anticancer human tumor 941728-121-R-J1-PDC patient-derived lung adenocarcinoma cell line growth inhibition [KRAS2]
assay-context: second compound 10 µM; first compound 0.316 µM; active compounds read low

compound: Cn1nccc1Nc1nccc(-c2cc3c(s2)C(C)(C)N(CCN2CCOCC2)C3=O)n1 + CNCc1ccccc1-c1csc(C(C)Nc2nc(C)nc3cc(OC)c(OC)cc23)c1
viability, T/C [%]: 0.44
//
compound: CC(C)NCC(C(=O)N1CCN(c2ncnc3c2C(C)CC3O)CC1)c1ccc(Cl)cc1 (stereo not given) + C=CC(=O)N1CCN(c2nc(=O)n(-c3c(C)ccnc3C(C)C)c3nc(-c4c(O)cccc4F)c(F)cc23)C(C)C1
viability, T/C [%]: 18.6
//
compound: COc1cc(Nc2ncc3c(n2)-c2ccc(Cl)cc2C(c2c(F)cccc2OC)=NC3)ccc1C(=O)O + COc1cc2nc(C)nc(NC(C)c3cc(N)cc(C(F)(F)F)c3)c2cc1OC1CCOC1
viability, T/C [%]: 7.81
//
compound: COc1cc2nccc(Oc3ccc(NC(=O)C4(C(=O)Nc5ccc(F)cc5)CC4)cc3)c2cc1OC + C=CC(=O)N1CCN(c2nc(=O)n(-c3c(C)ccnc3C(C)C)c3nc(-c4c(O)cccc4F)c(F)cc23)C(C)C1
viability, T/C [%]: 15.3
//
compound: CC(C)NCC(C(=O)N1CCN(c2ncnc3c2C(C)CC3O)CC1)c1ccc(Cl)cc1 (stereo not given) + CC1OCC2(CCN(c3cnc(Sc4ccnc(N)c4Cl)c(N)n3)CC2)C1N
viability, T/C [%]: 17.2

* * *

Tested on: KRAS patient-derived spheroids with HUVEC/MSC, viability
procedure-text: Anticancer human tumor 941728-121-R-J1-PDC cell line growth inhibition [KRAS2];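 also: spheroids exposed to agents for seven days before readout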
assay-context: second compound 0.1 µM; first compound 0.01 µM; active compounds read low
measurement-label: viability, T/C (%)

compound: CCN1CCN(Cc2ccc(Nc3ncc(F)c(-c4cc(F)c5nc(C)n(C(C)C)c5c4)n3)nc2)CC1 + C=CC(=O)N1CCN(c2nc(=O)n(-c3c(C)ccnc3C(C)C)c3nc(-c4c(O)cccc4F)c(F)cc23)C(C)C1
system-name: KRAS patient-derived spheroids with HUVEC/MSC, viability
unit: %
measured-number: 18.3
--
compound: CN(C)C/C=C/C(=O)Nc1cc2c(Nc3ccc(F)c(Cl)c3)ncnc2cc1O[C@H]1CCOC1 + C=CC(=O)N1CCN(c2nc(=O)n(-c3c(C)ccnc3C(C)C)c3nc(-c4c(O)cccc4F)c(F)cc23)C(C)C1
system-name: KRAS patient-derived spheroids with HUVEC/MSC, viability
unit: %
measured-number: 15.5
--
compound: CC1COCCN1c1cc(-c2ccnn2C)c2ccnc(-c3ccn[nH]3)c2n1 (stereo not given) + CC1OCC2(CCN(c3cnc(Sc4ccnc(N)c4Cl)c(N)n3)CC2)C1N
system-name: KRAS patient-derived spheroids with HUVEC/MSC, viability
unit: %
measured-number: 43.9
--
compound: CC(=O)OC12COC1CC(O)C1(C)C(=O)C(O)C3=C(C)C(OC(=O)C(O)C(NC(=O)OC(C)(C)C)c4ccccc4)CC(O)(C(OC(=O)c4ccccc4)C21)C3(C)C (stereo not given) + C=CC(=O)N1CCN(c2nc(=O)n(-c3c(C)ccnc3C(C)C)c3nc(-c4c(O)cccc4F)c(F)cc23)C(C)C1
system-name: KRAS patient-derived spheroids with HUVEC/MSC, viability
unit: %
measured-number: 19.7
--
compound: CC(=O)Nc1cccc(-n2c(=O)n(C3CC3)c(=O)c3c(Nc4ccc(I)cc4F)n(C)c(=O)c(C)c32)c1 + CNCc1ccccc1-c1csc(C(C)Nc2nc(C)nc3cc(OC)c(OC)cc23)c1
system-name: KRAS patient-derived spheroids with HUVEC/MSC, viability
unit: %
measured-number: 35.7
